The measured values listed here are drawn from patent US5202315A.

MIC values by entry
- Test system: Bacillus megaterium ATCC 9885
- EXPERIMENT_SUMMARY: Antibacterial activity, MIC
- Format: cell-based
- EXPERIMENTAL_CONTEXT: Priestia megaterium, ATCC9885; ATCC 9885; agar two-fold dilution, 37° C., 20 hours; read-out: MIC
Reply numerically in µg/mL, unit not repeated.

Cc1c(N)nc(SCC2=C(C(=O)[O-])N3C(=O)C(NC(=O)/C(=N\OC(C)(C)C(=O)O)c4csc(N)n4)C3SC2)[n+](C)c1N (stereo not shown)	0.5
CC[n+]1c(N)cc(N)nc1SCC1=C(C(=O)[O-])N2C(=O)C(NC(=O)/C(=N\OC(C)C(=O)O)c3csc(N)n3)C2SC1 (stereo not shown)	1
CC(O/N=C(\C(=O)NC1C(=O)N2C(C(=O)[O-])=C(CSc3nc(N)cc(N)[n+]3N)CSC12)c1csc(N)n1)C(=O)O (stereo not shown)	0.5
CCC[n+]1c(N)cc(N)nc1SCC1=C(C(=O)[O-])N2C(=O)C(NC(=O)/C(=N\OC(C)(C)C(=O)O)c3nsc(N)n3)C2SC1 (stereo not shown)	0.25
CCO/N=C(\C(=O)NC1C(=O)N2C(C(=O)[O-])=C(CSc3nc(N)cc(N)[n+]3CC)CSC12)c1csc(N)n1 (stereo not shown)	0.063

Quick one: MIC for CC[n+]1c(N)cc(N)nc1SCC1=C(C(=O)[O-])N2C(=O)C(NC(=O)/C(=N\OC(C)(C)C(=O)O)c3csc(N)n3)C2SC1 (stereo not shown) ?
0.5

Quick one: MIC for CC(C)(O/N=C(\C(=O)NC1C(=O)N2C(C(=O)[O-])=C(CSc3nc(N)cc(N)[n+]3N)CSC12)c1nsc(N)n1)C(=O)O (stereo not shown) ?
1

Quick one: MIC for CO/N=C(\C(=O)NC1C(=O)N2C(C(=O)[O-])=C(CSc3nc(N)cc(N)[n+]3N)CSC12)c1csc(N)n1 (stereo not shown) ?
0.13

Quick one: MIC for CO/N=C(\C(=O)NC1C(=O)N2C(C(=O)[O-])=C(CSc3nc(N)cc(N)[n+]3C)CSC12)c1nsc(N)n1 (stereo not shown) ?
0.25

Quick one: MIC for COc1cccc(OC)c1-[n+]1c(N)cc(N)nc1SCC1=C(C(=O)[O-])N2C(=O)C(NC(=O)/C(=N\OC(C)(C)C(=O)O)c3csc(N)n3)C2SC1 (stereo not shown) ?
0.25

Quick one: MIC for CO/N=C(\C(=O)NC1C(=O)N2C(C(=O)[O-])=C(CSc3nc(N)cc(N)[n+]3C)CSC12)c1csc(N)n1 (stereo not shown) ?
0.25

Quick one: MIC for C=CC[n+]1c(N)cc(N)nc1SCC1=C(C(=O)[O-])N2C(=O)C(NC(=O)/C(=N\OCC(=O)O)c3csc(N)n3)C2SC1 (stereo not shown) ?
0.25

Quick one: MIC for CCO/N=C(\C(=O)NC1C(=O)N2C(C(=O)[O-])=C(CSc3nc(N)cc(N)[n+]3C)CSC12)c1nsc(N)n1 (stereo not shown) ?
0.13

---

- EXPERIMENT_SUMMARY: In-vivo absorbency (plasma concentrations & pharmacokinetic parameters)
- Set-up: species or system SD rat (male)
- EXPERIMENTAL_CONTEXT: plasma; SD male rat, iv 20 mg/kg; two compartment model
Please assign NOT MET whenever AUC is at or above 30000 ng·h/mL, and MET whenever it is below.

These recorded examples may help you get a feel for the data.
CCO/N=C(\C(=O)NC1C(=O)N2C(C(=O)[O-])=C(CSc3nc(N)cc(N)[n+]3N)CSC12)c1csc(N)n1 (stereo not drawn)	NOT MET
CC[n+]1c(N)cc(N)nc1SCC1=C(C(=O)[O-])N2C(=O)C(NC(=O)/C(=N\OC(C)(C)C(=O)O)c3csc(N)n3)C2SC1 (stereo not drawn)	MET

Hi there! Is AUC for CC[n+]1c(N)cc(N)nc1SCC1=C(C(=O)[O-])N2C(=O)C(NC(=O)/C(=N\OCC(=O)O)c3csc(N)n3)C2SC1 (stereo not drawn) below 30000 ng·h/mL, do you know?
NOT MET

Hi there! Is AUC for CCC[n+]1c(N)cc(N)nc1SCC1=C(C(=O)[O-])N2C(=O)C(NC(=O)/C(=N\OC(C)C(=O)O)c3csc(N)n3)C2SC1 (stereo not drawn) below 30000 ng·h/mL, do you know?
NOT MET

---

MIC values by entry
- Tested on: Klebsiella pneumoniae ATCC 10031
- EXPERIMENT_SUMMARY: Antibacterial activity, MIC
- Assay type: cell-based
- EXPERIMENTAL_CONTEXT: ATCC10031, ATCC 10031, agar two-fold dilution, 37° C., 20 hours, read-out: MIC
Reply numerically in µg/mL, unit not repeated.

Quick one: MIC for CCO/N=C(\C(=O)NC1C(=O)N2C(C(=O)[O-])=C(CSc3nc(N)cc(N)[n+]3N)CSC12)c1nsc(N)n1 (centres unmarked) ?
0.016

Quick one: MIC for CCO/N=C(\C(=O)NC1C(=O)N2C(C(=O)[O-])=C(CSc3nc(N)cc(N)[n+]3C)CSC12)c1csc(N)n1 (centres unmarked) ?
0.016

Quick one: MIC for COc1cccc(OC)c1-[n+]1c(N)cc(N)nc1SCC1=C(C(=O)[O-])N2C(=O)C(NC(=O)/C(=N\OC(C)(C)C(=O)O)c3csc(N)n3)C2SC1 (centres unmarked) ?
0.25

Quick one: MIC for CO/N=C(\C(=O)NC1C(=O)N2C(C(=O)[O-])=C(CSc3nc(N)cc(N)[n+]3C)CSC12)c1csc(N)n1 (centres unmarked) ?
0.016

Quick one: MIC for Cc1c(N)nc(SCC2=C(C(=O)[O-])N3C(=O)C(NC(=O)/C(=N\OC(C)(C)C(=O)O)c4csc(N)n4)C3SC2)[n+](C)c1N (centres unmarked) ?
0.063

Quick one: MIC for CCC[n+]1c(N)cc(N)nc1SCC1=C(C(=O)[O-])N2C(=O)C(NC(=O)/C(=N\OC(C)C(=O)O)c3csc(N)n3)C2SC1 (centres unmarked) ?
0.063

Quick one: MIC for CC[n+]1c(N)cc(N)nc1SCC1=C(C(=O)[O-])N2C(=O)C(NC(=O)/C(=N\OC(C)(C)C(=O)O)c3csc(N)n3)C2SC1 (centres unmarked) ?
0.063

Quick one: MIC for C[n+]1c(N)cc(N)nc1SCC1=C(C(=O)[O-])N2C(=O)C(NC(=O)/C(=N\OC(C)(C)C(=O)O)c3nsc(N)n3)C2SC1 (centres unmarked) ?
0.13

---

MIC values by entry
- Tested on: Salmonella typhimurium ATCC 14028
- EXPERIMENT_SUMMARY: Antibacterial activity, MIC
- Format: cell-based
- EXPERIMENTAL_CONTEXT: Salmonella enterica; ATCC 14028; agar two-fold dilution, 37° C., 20 hours; read-out: MIC
Reply numerically in µg/mL, unit not repeated.

Example cases with answers are listed next.
C[n+]1c(N)cc(N)nc1SCC1=C(C(=O)[O-])N2C(=O)C(NC(=O)/C(=N\OC(C)(C)C(=O)O)c3nsc(N)n3)C2SC1 (stereo not drawn) [Compound I-26]	0.5
CC(C)(O/N=C(\C(=O)NC1C(=O)N2C(C(=O)[O-])=C(CSc3nc(N)cc(N)[n+]3-c3ccc(O)cc3)CSC12)c1csc(N)n1)C(=O)O (stereo not drawn) [Compound I-36]	0.5

Quick one: MIC for CCC[n+]1c(N)cc(N)nc1SCC1=C(C(=O)[O-])N2C(=O)C(NC(=O)/C(=N\OCC)c3nsc(N)n3)C2SC1 (stereo not drawn) [Compound I-22] ?
2

Quick one: MIC for CC(C)(O/N=C(\C(=O)NC1C(=O)N2C(C(=O)[O-])=C(CSc3nc(N)cc(N)[n+]3N)CS[C@H]12)c1csc(N)n1)C(=O)O (stereo partly drawn) [Compound I-15] ?
0.13

Quick one: MIC for CO/N=C(\C(=O)NC1C(=O)N2C(C(=O)[O-])=C(CSc3nc(N)cc(N)[n+]3C)CSC12)c1nsc(N)n1 (stereo not drawn) [Compound I-24] ?
0.5

Quick one: MIC for CC[n+]1c(N)cc(N)nc1SCC1=C(C(=O)[O-])N2C(=O)C(NC(=O)/C(=N\OC(C)(C)C(=O)O)c3nsc(N)n3)C2SC1 (stereo not drawn) [Compound I-27] ?
0.5

Quick one: MIC for C#CCO/N=C(\C(=O)NC1C(=O)N2C(C(=O)[O-])=C(CSc3nc(N)cc(N)[n+]3CC)CSC12)c1csc(N)n1 (stereo not drawn) [Compound I-47] ?
0.25

Quick one: MIC for CCCC[n+]1c(N)cc(N)nc1SCC1=C(C(=O)[O-])N2C(=O)C(NC(=O)/C(=N\OC(C)(C)C(=O)O)c3nsc(N)n3)C2SC1 (stereo not drawn) [Compound I-29] ?
0.5

Quick one: MIC for CC[n+]1c(N)cc(N)nc1SCC1=C(C(=O)[O-])N2C(=O)C(NC(=O)/C(=N\OC)c3nsc(N)n3)C2SC1 (stereo not drawn) [Compound I-25] ?
0.25

Quick one: MIC for CCc1c(N)nc(SCC2=C(C(=O)[O-])N3C(=O)C(NC(=O)/C(=N\OC(C)(C)C(=O)O)c4csc(N)n4)C3SC2)[n+](CC)c1N (stereo not drawn) [Compound I-33] ?
0.5

Quick one: MIC for CC[n+]1c(SCC2=C(C(=O)[O-])N3C(=O)C(NC(=O)/C(=N\OC(C)(C)C(=O)O)c4csc(N)n4)C3SC2)nc(N)c(C)c1N (stereo not drawn) [Compound I-32] ?
0.25

Quick one: MIC for Cc1c(N)nc(SCC2=C(C(=O)[O-])N3C(=O)C(NC(=O)/C(=N\OC(C)(C)C(=O)O)c4csc(N)n4)C3SC2)[n+](C)c1N (stereo not drawn) [Compound I-30] ?
0.25
